Hello, the source for this data is paper PMC7409549, in case you need it.

assayed target: T1, 6xHIS-Nba1_(202-289)-SNAP (S. cerevisiae, UniProt Q08229 202-289)
T1 construct: Nba1, S. cerevisiae, residues 202-289; also called the PxxP site; source: E. coli BL21DE3, purified (HisTrap HP, size-exclusion chromatography); not shown: 6xHIS, N-terminal, kept; SNAP-tag, C-terminal, kept
T1 sequence (looked up): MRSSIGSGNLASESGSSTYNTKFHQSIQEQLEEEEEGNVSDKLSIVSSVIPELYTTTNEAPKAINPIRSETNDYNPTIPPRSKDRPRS
measurement description: SPR; Biacore X100; GST-SH3 domains captured on an anti-GST antibody CM5 chip, free GST on the reference cell; 6xHis-Nba1_(202-289)-SNAP as analyte; HBSEP buffer (10 mM Hepes, 150 mM NaCl, 3 mM EDTA, 0.05% Tween 20, pH 7.4); equilibrium KD
measurement context: both partners purified

{"binder": "GST-SH3_(Boi2) (domain or fragment, S. cerevisiae, UniProt P39969 43-107, looked up, SH3 domain of Boi2, S. cerevisiae; source: E. coli BL21DE3, purified (GSTrap, Superdex 200); not shown: GST, N-terminal, kept) GNFPMYIAINEYFKRMEDELDMKPGDKIKVITDDEEYKDGWYFGRNLRTNEEGLYPVVFTQKITV", "Kd / µM": 1.97}
